Assay: Inhibition of KRas G12C mutant in human NCI-H1792 cells assessed as antiproliferative activity incubated for 3 days by CellTiter-Glo assay
parameter: EC50 (nM)
Write it as a number; the unit nM goes unstated.

Tell us which EC50 value is on record for C=CC(=O)N1CCN(C(=O)CNc2cc(I)c(Cl)cc2O)CC1
320
